tested on: A549; test: cells; format: cell-based; details: Homo sapiens, A549, 48 h, read-out: LC50, A549, 48 hours exposure, SRB
quantity_kind: log10 of CC50 (log10 of the value in nM)
Hi team, quick reminder: these entries are log10 of CC50 (nM).

The cases that follow already have their log10 of CC50 on record.
1) COc1c(C)cc2c(c1O)[C@@H]1C3[C@@H]4SC[C@]5(NCCc6c5[nH]c5ccccc65)C(=O)COC[C@@H](c5c6c(c(C)c(OC(C)=O)c54)OCO6)N3[C@@H](O)[C@H](C2)N1C (stereo partly drawn) [Compound 26] ... 1.12
2) COc1c(C)cc2c(c1O)[C@@H]1C3[C@@H]4SC[C@]5(NC(C)Cc6c5[nH]c5ccc(F)cc65)C(=O)COC[C@@H](c5c6c(c(C)c(OC(C)=O)c54)OCO6)N3[C@@H](O)[C@H](C2)N1C (stereo partly drawn) [Compound 41] ... 2.04
3) COc1c(C)cc2c(c1O)[C@@H]1C3[C@@H]4SC[C@]5(NCCc6c5[nH]c5ccccc65)C(=O)COC[C@@H](c5c6c(c(C)c(OC(=O)C(F)(F)C(F)(F)C(F)(F)F)c54)OCO6)N3[C@@H](O)[C@H](C2)N1C (stereo partly drawn) [Compound 62] ... 1.89
4) C=COC(=O)Oc1c(OC)c(C)cc2c1[C@@H]1C3[C@@H]4SC[C@]5(C(=O)COC[C@@H](c6c7c(c(C)c(OC(C)=O)c64)OCO7)N3[C@@H](C#N)[C@H](C2)N1C)c1[nH]c2ccccc2c1CCN5C(=O)OC=C (stereo partly drawn) [Compound 23] ... 4.05
5) COc1c(C)cc2c(c1O)[C@@H]1C3[C@@H]4SC[C@]5(NCCc6c5[nH]c5ccc(F)cc65)C(=O)COC[C@@H](c5c6c(c(C)c(OC(C)=O)c54)OCO6)N3[C@@H](O)[C@H](C2)N1C (stereo partly drawn) [Compound 35] ... 3.61

Pending compound:
Which log10 of CC50 is listed for COc1c(C)cc2c(c1O)[C@@H]1C3[C@@H]4SC[C@]5(NCCc6c5[nH]c5cc(F)ccc65)C(=O)COC[C@@H](c5c6c(c(C)c(OC(C)=O)c54)OCO6)N3[C@@H](O)[C@H](C2)N1C (stereo partly drawn) [Compound 32] ?
1.96

The reported measurements were obtained from patent US7763615B2.
